Where these numbers come from: ChEMBL document CHEMBL3271955

Entries with reported pIC50 on UniProt:P40926
Sequence (P40926 whole entry): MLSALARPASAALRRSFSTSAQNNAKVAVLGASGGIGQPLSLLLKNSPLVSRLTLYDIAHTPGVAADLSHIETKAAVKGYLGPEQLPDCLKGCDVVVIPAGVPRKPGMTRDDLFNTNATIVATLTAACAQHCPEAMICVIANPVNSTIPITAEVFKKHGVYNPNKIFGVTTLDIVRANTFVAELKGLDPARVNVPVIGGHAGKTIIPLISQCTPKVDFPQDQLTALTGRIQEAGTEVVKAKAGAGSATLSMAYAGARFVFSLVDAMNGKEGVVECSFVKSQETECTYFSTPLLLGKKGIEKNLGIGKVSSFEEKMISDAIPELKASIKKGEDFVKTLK
pIC50: −log10 of the molar value.
reported property: pIC50

Please review the following examples before continuing.
INSERT INTO results (smiles_code, reported_property, value) VALUES
  ('O=C(O)c1cnc2cc(S(=O)(=O)O)ccc2c1O', 'pIC50', 2.67),
  ('O=C(O)c1ccc2c(O)c(C(=O)O)cnc2c1', 'pIC50', 2.97);

P: NS(=O)(=O)c1ccc2c(O)c(C(=O)O)cnc2c1
Q: O=C(O)c1cnc2cc(OCc3ccc(Cl)c(Cl)c3)ccc2c1O
R: O=C(O)c1cnc2cc([N+](=O)[O-])ccc2c1O
S: CN(C)c1ccc2c(O)c(C(=O)O)cnc2c1
T: O=C(O)c1cnc2cc(F)ccc2c1O
[ask] List items by pIC50 in falling order. Give the labels in the order specified.
[reply] Q, S, P, R, T
(Q: 5.30, S: 3.32, P: 3.02, R: 2.72, T: 1.98)
